- method_description: Thermodynamic solubility of compound by LC-MS/MS analysis
- Format: physicochemical
- test_settings: read-out: Therm_solubility

{"compound": "Cn1ncc2c(Nc3ncc(C(=O)Nc4ccccc4)s3)nc(SCCN3CCOCC3)nc21", "solubility thermodynamic": "< 0.01 µg/mL"}
{"compound": "O=C(Nc1ccccc1)c1cnc(Nc2ncnc3c2cnn3CC(Cl)c2ccccc2)s1 (configuration not stated)", "solubility thermodynamic": "< 0.01 µg/mL"}
{"compound": "O=C(Nc1cccc(O)c1)c1cnc(Nc2ncnc3c2cnn3CC(Cl)c2ccccc2)s1 (configuration not stated)", "solubility thermodynamic": "< 0.01 µg/mL"}
{"compound": "Cn1ncc2c(Nc3ncc(C(=O)Nc4cccc(O)c4)s3)nc(SCCN3CCOCC3)nc21", "solubility thermodynamic": "0.03 µg/mL"}
{"compound": "Cc1ccc(O)cc1NC(=O)c1cnc(Nc2nc(SCCN3CCOCC3)nc3c2cnn3C)s1", "solubility thermodynamic": "< 0.01 µg/mL"}
{"compound": "Cn1ncc2c(Nc3ncc(C(=O)Nc4cc(O)ccc4Br)s3)nc(SCCN3CCOCC3)nc21", "solubility thermodynamic": "< 0.01 µg/mL"}
{"compound": "Cn1ncc2c(Nc3ncc(C(=O)Nc4cccc(O)c4)s3)nc(NCCO)nc21", "solubility thermodynamic": "0.01 µg/mL"}

* * *

- method_description: Cytotoxicity against human HEK293 cells assessed as reduction in cell proliferation incubated for 24 hrs by MTT assay
- Assay type: toxicity, cell-based

{"molecule": "Cc1nc(Nc2ncc(C(=O)Nc3c(C)cccc3Cl)s2)cc(N2CCN(CCO)CC2)n1 [DASATINIB ANHYDROUS]", "unit_label": "µM", "CC50 at 24 h": 5.4}
{"molecule": "Cc1ccc(O)cc1NC(=O)c1cnc(Nc2nc(SCCN3CCOCC3)nc3c2cnn3C)s1", "unit_label": "µM", "CC50 at 24 h": 18.5}

* * *

- method_description: Stability in human plasma measured after 24 hrs by UV-LC/MS analysis
- Type: ADME, cell-free
- test_settings: read-out: Stability
reported_metric: remaining at 24 h (%)

{"compound": "O=C(Nc1ccccc1)c1cnc(Nc2ncnc3c2cnn3CC(Cl)c2ccccc2)s1 (stereo unspecified)", "operator": "=", "numeric_value": 88.5}
{"compound": "O=C(Nc1cccc(O)c1)c1cnc(Nc2ncnc3c2cnn3CC(Cl)c2ccccc2)s1 (stereo unspecified)", "operator": ">", "numeric_value": 100}
{"compound": "Cn1ncc2c(Nc3ncc(C(=O)Nc4ccccc4)s3)nc(SCCN3CCOCC3)nc21", "operator": "=", "numeric_value": 98.3}
{"compound": "Cn1ncc2c(Nc3ncc(C(=O)Nc4cccc(O)c4)s3)nc(NCCO)nc21", "operator": "=", "numeric_value": 94.5}
{"compound": "Cn1ncc2c(Nc3ncc(C(=O)Nc4cc(O)ccc4Br)s3)nc(SCCN3CCOCC3)nc21", "operator": "=", "numeric_value": 99.5}
{"compound": "Cc1ccc(O)cc1NC(=O)c1cnc(Nc2nc(SCCN3CCOCC3)nc3c2cnn3C)s1", "operator": ">", "numeric_value": 100}

* * *

- method_description: Permeability of the compound in PBS buffer at pH 7.4 assessed as membrane retention rate by PAMPA method
- Assay type: ADME
Listed here are compounds together with their documented membrane retention.

{"compound": "Cn1ncc2c(Nc3ncc(C(=O)Nc4cccc(O)c4)s3)nc(SCCN3CCOCC3)nc21", "membrane retention (%)": 3.1}
{"compound": "Cn1ncc2c(Nc3ncc(C(=O)Nc4cc(O)ccc4Br)s3)nc(SCCN3CCOCC3)nc21", "membrane retention (%)": 0.51}
{"compound": "Cn1ncc2c(Nc3ncc(C(=O)Nc4ccccc4)s3)nc(SCCN3CCOCC3)nc21", "membrane retention (%)": 16.49}
{"compound": "Cn1ncc2c(Nc3ncc(C(=O)Nc4cccc(O)c4)s3)nc(NCCO)nc21", "membrane retention (%)": 7.28}
{"compound": "O=C(Nc1cccc(O)c1)c1cnc(Nc2ncnc3c2cnn3CC(Cl)c2ccccc2)s1 (configuration not stated)", "membrane retention (%)": 6.1}
{"compound": "Cc1ccc(O)cc1NC(=O)c1cnc(Nc2nc(SCCN3CCOCC3)nc3c2cnn3C)s1", "membrane retention (%)": 19}
{"compound": "O=C(Nc1ccccc1)c1cnc(Nc2ncnc3c2cnn3CC(Cl)c2ccccc2)s1 (configuration not stated)", "membrane retention (%)": 8.36}

* * *

Listed here are molecules together with their documented IC50.
- Test system: Huh-7
- method_description: Antiproliferative activity against human Huh-7 cells assessed as cell growth inhibition measured at 48 hrs by MTT assay
- test_settings: Huh-7, 48 h

{"molecule": "Cc1nc(Nc2ncc(C(=O)Nc3c(C)cccc3Cl)s2)cc(N2CCN(CCO)CC2)n1 [DASATINIB ANHYDROUS]", "unit_label": "µM", "IC50": 16.3}
{"molecule": "Cc1ccc(O)cc1NC(=O)c1cnc(Nc2nc(SCCN3CCOCC3)nc3c2cnn3C)s1", "unit_label": "µM", "IC50": 28.8}
{"molecule": "Cn1ncc2c(Nc3ncc(C(=O)Nc4cccc(O)c4)s3)nc(NCCO)nc21", "unit_label": "µM", "IC50": 48.8}
{"molecule": "O=C(Nc1ccccc1)c1cnc(Nc2ncnc3c2cnn3CC(Cl)c2ccccc2)s1 (configuration not stated)", "unit_label": "µM", "IC50": 21.2}
{"molecule": "O=C(Nc1cccc(O)c1)c1cnc(Nc2ncnc3c2cnn3CC(Cl)c2ccccc2)s1 (configuration not stated)", "unit_label": "µM", "IC50": 22}
{"molecule": "Cn1ncc2c(Nc3ncc(C(=O)Nc4ccccc4)s3)nc(SCCN3CCOCC3)nc21", "unit_label": "µM", "IC50": 33.5}
{"molecule": "Cn1ncc2c(Nc3ncc(C(=O)Nc4cc(O)ccc4Br)s3)nc(SCCN3CCOCC3)nc21", "unit_label": "µM", "IC50": 13.7}

* * *

- method_description: Stability in human plasma assessed as half life measured up to 24 hrs by UV-LC/MS analysis
- Format: ADME, cell-free
reported_metric: half-life

{"sample_smiles": "Cn1ncc2c(Nc3ncc(C(=O)Nc4ccccc4)s3)nc(SCCN3CCOCC3)nc21", "result": "> 24 h"}

* * *

Listed here are compounds together with their documented Papp at 4 h.
- method_description: Apparent permeability of compound in PBS buffer at pH 7.4 incubated for 4 hrs by LC-UV-MS analysis
- Assay type: ADME
- test_settings: not told
reported_metric: Papp at 4 h

{"sample_smiles": "Cc1ccc(O)cc1NC(=O)c1cnc(Nc2nc(SCCN3CCOCC3)nc3c2cnn3C)s1", "result": "< 0.1 ×10⁻⁶ cm/s"}
{"sample_smiles": "Cn1ncc2c(Nc3ncc(C(=O)Nc4cccc(O)c4)s3)nc(NCCO)nc21", "result": "< 0.1 ×10⁻⁶ cm/s"}
{"sample_smiles": "Cn1ncc2c(Nc3ncc(C(=O)Nc4cc(O)ccc4Br)s3)nc(SCCN3CCOCC3)nc21", "result": "< 0.1 ×10⁻⁶ cm/s"}

Where do these numbers come from? They come from ChEMBL document CHEMBL6092177.
